# methodSummary: Cmax in plasma of in 10 […] old infants/toddlers measured on day 1 post dose
# Format: ADME, organism-based
# conditionDetails: human
recordedMetric: Cmax
Answer format: value, then unit.

Task item: Answer with the recorded Cmax of CC[C@H](C)C[C@H](C)CCCCCCCCC(=O)N[C@H]1C[C@@H](O)[C@@H](NCCN)NC(=O)[C@@H]2[C@@H](O)CCN2C(=O)[C@H]([C@H](O)CCN)NC(=O)[C@H]([C@H](O)[C@@H](O)c2ccc(O)cc2)NC(=O)[C@@H]2C[C@@H](O)CN2C(=O)[C@H]([C@@H](C)O)NC1=O only.
Reply: 14500 ng/mL
